- Run Conditions: human gut metagenome, 24 h, 2 µM; also: call rule not given here
Quantity Measured: Bacterial Biotransformation

Compound Structure String: CCc1oc2ccccc2c1C(=O)c1cc(Br)c(O)c(Br)c1
Value Reported: Compound NOT metabolized
--
Compound Structure String: CN(C)CCc1c[nH]c2ccc(CS(=O)(=O)N3CCCC3)cc12
Value Reported: Compound NOT metabolized

----------
- Run Conditions: human gut metagenome, 24 h, 2 µM
Quantity Measured: Bacterial Biotransformation

Molecule: CC#CCn1c(N2CCC[C@@H](N)C2)nc2c1c(=O)n(Cc1nc(C)c3ccccc3n1)c(=O)n2C [LINAGLIPTIN]
Quantity Measured: Bacterial Biotransformation
Value Reported: Compound NOT metabolized
--
Molecule: CC(=O)O[C@H]1C(=O)[C@@]2(C)[C@H]([C@H](OC(=O)c3ccccc3)[C@]3(O)C[C@H](OC(=O)[C@H](O)[C@@H](NC(=O)c4ccccc4)c4ccccc4)C(C)=C1C3(C)C)[C@]1(OC(C)=O)CO[C@@H]1C[C@@H]2O [PACLITAXEL]
Quantity Measured: Bacterial Biotransformation
Value Reported: Compound NOT metabolized

----------
- Run Conditions: human gut metagenome, 24 h, 2 µM
Quantity Measured: Bacterial Biotransformation

Molecule: O=C1C(CC[S+]([O-])c2ccccc2)C(=O)N(c2ccccc2)N1c1ccccc1 (stereo not given)
Bacterial Biotransformation: Compound metabolized

Molecule: CN(C)C(=O)Oc1cccc([N+](C)(C)C)c1.[Br-] [NEOSTIGMINE BROMIDE]
Bacterial Biotransformation: Compound NOT metabolized

Molecule: Clc1cccc(Cl)c1N=C1NCCN1
Bacterial Biotransformation: Compound NOT metabolized

Molecule: C#C[C@]1(OC(C)=O)CC[C@H]2[C@@H]3CCC4=C[C@@H](OC(C)=O)CC[C@@H]4[C@H]3CC[C@@]21C [ETHYNODIOL DIACETATE]
Bacterial Biotransformation: Compound metabolized

Molecule: CN1CCC(=C2c3ccccc3CC(=O)c3sccc32)CC1.O=C(O)/C=C/C(=O)O [KETOTIFEN FUMARATE]
Bacterial Biotransformation: Compound NOT metabolized

Bacterial Biotransformation reading for O=P1(N(CCCl)CCCl)NCCCO1 (stereo not given) [CYCLOPHOSPHAMIDE ANHYDROUS] : Compound NOT metabolized

Bacterial Biotransformation reading for CC(=O)OCC(=O)NCCCOc1cccc(CN2CCCCC2)c1 [ROXATIDINE ACETATE] : Compound metabolized

Bacterial Biotransformation reading for `CC#C[C@]1(O)CC[C@H]2[C@@H]3CCC4=CC(=O)CCC4=C3[C@@H](c3ccc(N(C)C)cc3)C[C@@]21C` : Compound NOT metabolized

Bacterial Biotransformation reading for CC1Cc2ccccc2N1NC(=O)c1ccc(Cl)c(S(N)(=O)=O)c1 (stereo not given) [INDAPAMIDE] : Compound NOT metabolized

Bacterial Biotransformation reading for `CC(=O)Oc1ccc(C(c2ccc(OC(C)=O)cc2)c2ccccn2)cc1` : Compound metabolized

----------
- Run Conditions: human gut metagenome, 24 h, 2 µM

Compound: CC(=O)O[C@H]1C(=O)[C@@]2(C)[C@H]([C@H](OC(=O)c3ccccc3)[C@]3(O)C[C@H](OC(=O)[C@H](O)[C@@H](NC(=O)c4ccccc4)c4ccccc4)C(C)=C1C3(C)C)[C@]1(OC(C)=O)CO[C@@H]1C[C@@H]2O
Bacterial Biotransformation: Compound NOT metabolized

Compound: CC(C)(C)NCC(O)COc1cccc2c1CC(O)C(O)C2 (centres undefined)
Bacterial Biotransformation: Compound metabolized

Compound: Cc1cc2c(s1)Nc1ccccc1N=C2N1CCN(C)CC1
Bacterial Biotransformation: Compound NOT metabolized

Compound: COc1ccc(Cc2nccc3cc(OC)c(OC)cc23)cc1OC
Bacterial Biotransformation: Compound metabolized
